Biological target: USP28 (USP28-5(1-1077)-TEV-6*His; LifeSensors) (Homo sapiens, UniProt Q96RU2)
Construct: construct USP28 (USP28-5(1-1077)-TEV-6*His; LifeSensors); TEV cleavage site (C); 6xHis (C); purchased LifeSensors
Sequence (Q96RU2 whole entry): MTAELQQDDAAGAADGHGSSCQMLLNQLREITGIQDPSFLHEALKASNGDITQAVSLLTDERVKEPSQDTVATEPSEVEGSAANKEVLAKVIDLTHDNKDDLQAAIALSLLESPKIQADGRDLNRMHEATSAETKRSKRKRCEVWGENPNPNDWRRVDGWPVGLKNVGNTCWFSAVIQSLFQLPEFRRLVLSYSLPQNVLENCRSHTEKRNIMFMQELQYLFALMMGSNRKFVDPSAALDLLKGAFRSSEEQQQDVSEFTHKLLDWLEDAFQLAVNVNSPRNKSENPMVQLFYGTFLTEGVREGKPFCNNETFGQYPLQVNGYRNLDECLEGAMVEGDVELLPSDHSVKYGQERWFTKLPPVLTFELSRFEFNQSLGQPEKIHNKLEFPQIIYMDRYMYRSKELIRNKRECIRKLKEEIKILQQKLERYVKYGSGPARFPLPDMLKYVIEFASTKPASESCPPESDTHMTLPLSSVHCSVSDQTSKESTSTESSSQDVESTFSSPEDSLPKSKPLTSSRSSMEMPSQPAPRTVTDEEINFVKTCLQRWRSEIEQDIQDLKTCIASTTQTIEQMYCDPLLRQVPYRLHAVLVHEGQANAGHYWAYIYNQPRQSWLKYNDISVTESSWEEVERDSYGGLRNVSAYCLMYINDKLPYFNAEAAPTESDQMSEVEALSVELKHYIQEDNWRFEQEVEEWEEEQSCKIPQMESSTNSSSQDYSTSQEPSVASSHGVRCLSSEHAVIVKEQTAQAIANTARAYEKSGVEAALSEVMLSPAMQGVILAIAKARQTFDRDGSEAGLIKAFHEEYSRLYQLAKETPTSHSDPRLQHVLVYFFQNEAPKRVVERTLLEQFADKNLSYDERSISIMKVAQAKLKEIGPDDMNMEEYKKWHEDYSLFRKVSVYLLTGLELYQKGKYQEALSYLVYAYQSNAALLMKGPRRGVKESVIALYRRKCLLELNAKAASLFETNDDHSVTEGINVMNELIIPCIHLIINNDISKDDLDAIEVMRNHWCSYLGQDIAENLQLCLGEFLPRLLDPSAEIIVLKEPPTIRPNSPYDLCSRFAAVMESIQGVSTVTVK
Assay: Ubiquitin-Rhodamine 110 Assay for USP28 Activity, Example A-1(b)
Assay type: biochemical
Description: Example A-1(b): Biochemical Assay: Ubiquitin-Rhodamine 110 Assay for USP28 Activity […] For assay formats Example A-1(a), A-1(b), and A-2, data were reported as percent inhibition compared with control wells based on the following equation: % inh=1−((FLU−AveLow)/(AveHigh−AveLow)) where FLU=measured Fluorescence, AveLow=average Fluorescence of no enzyme control (n=16), and AveHighh=average Fluorescence of DMSO control (n=16). […]
PARAMETER MEASURED: USP28 A-1(b) IC50 range

CCn1ccc2cc(C(=O)N[C@@H]3CCc4cc(N5CC6CCC(C5)N6)ccc4C3)nnc21 (single isomer, unassigned) ... + (“+”L>2 μM)
Cc1ccc2c(N)c(C(=O)N[C@H]3COc4cc(N5CCNCC5)ccc4[C@@H]3C)sc2n1 (single isomer, unassigned) [Example 11-16] ... + (“+”L>2 μM)
Cc1nc2sc(C(=O)N[C@@H]3CCc4cc(N5CCNCC5)ccc4C3)c(N)c2s1 (single isomer, unassigned) ... ++ (“++”: 0.2-2 μM)
Cc1cnc2c(N)c(C(=O)N[C@@H]3CCc4cc(N5C[C@H]6C[C@@H]5CN6)ccc4C3)sc2n1 (single isomer, unassigned) ... ++ (“++”: 0.2-2 μM)
CCn1ccc2cc(C(=O)N[C@H]3CCc4cc(N5CC6CCC(C5)N6)ccc4C3)nnc21 (single isomer, unassigned) ... + (“+”L>2 μM)
Cc1cnc2c(N)c(C(=O)N[C@@H]3CCc4cc(N5CCNCC5)c(F)cc4C3)sc2n1 (single isomer, unassigned) ... ++ (“++”: 0.2-2 μM)
Cc1ccc2c(N)c(C(=O)N[C@H]3COc4cc(N5C[C@@H]6CNC[C@H]6C5)ccc4C3)sc2n1 ... + (“+”L>2 μM)
Cc1ccc2c(N)c(C(=O)N[C@H]3CCc4cc(N5CCNCC5)ccc4C3)sc2n1 (single isomer, unassigned) ... ++ (“++”: 0.2-2 μM)

The measured USP28 A-1(b) IC50 range associated with Cc1cnc2c(N)c(C(=O)N[C@@H]3CCc4cc(N5CCNCC5)ccc4C3)sc2n1 (single isomer, unassigned) reads + (“+”L>2 μM)

The measured USP28 A-1(b) IC50 range associated with Cc1ccc2c(N)c(C(=O)N[C@H]3COc4cc(N5CCNCC5)ccc4[C@@H]3C)sc2n1 (single isomer, unassigned) [Example 11-17] reads + (“+”L>2 μM)

* * *

molecular target: USP28 (His-tagged USP28-FL-mammalian) (Homo sapiens); construct: Expression of USP28 (1-1077)-TEV-6*His (pTT5 vector) was carried out in Expi293f cells; made in house; host or cells: Expi293F cells (pTT5 vector); experiment: Ubiquitin-Rhodamine 110 Assay for USP28 Activity, Example A-1(a); type: biochemical; details: Ubiquitin-Rhodamine 110 assay, read-out: USP28 A-1(a) IC50 range
Sequence (Q96RU2 whole entry): as above
pIC50: −log10 of the molar value.
PARAMETER MEASURED: pIC50

Known pIC50 results, listed for orientation:
Cc1cnc2c(N)c(C(=O)N[C@H]3CCc4c(ccc(N5CCNCC5)c4F)C3)sc2n1 (single isomer, unassigned) [Example 21-10] ... < 5.70
CCn1ccc2cc(C(=O)N[C@H]3CCc4nc(N5C[C@H](COC)[C@H](N)C5)ccc4C3)cnc21 (single isomer, unassigned) [Example 401] ... 5.70 to 6.70
Cc1ccc2c(N)c(C(=O)N[C@H]3COc4cc(N5CCNCC5)ccc4[C@@H]3C)sc2n1 (single isomer, unassigned) [Example 11-17] ... < 5.70
Cc1cnc2c(N)c(C(=O)N[C@@H]3CCc4c(C#N)c(N5CCNCC5)cc(F)c4C3)sc2n1 (single isomer, unassigned) [Example 14-11] ... 7.30 to 9.00
[2H]C1([2H])c2c(F)cc(N3CCNCC3)cc2OC[C@@H]1NC(=O)c1sc2nc(C)ccc2c1N (single isomer, unassigned) [Example 33-1] ... 7.30 to 9.00

The measured pIC50 associated with CO[C@H]1CN(c2ccc3c(c2)OC[C@H](NC(=O)c2sc4nc(C)sc4c2N)C3)CC1N (stereo partly shown) [Example 118] reads 6.70 to 7.30
